Could you please report measured Potency for the items listed next?
EXPERIMENTAL DETAILS: Drug repurposing screens with cells derived from glioblastoma tumor samples (AID 1345199); also: potency is read from the fitted curve at half-maximal effect; nearly all actives have a fitted effect of over 40% in size
CONDITION SET: GBM patient neurospheres viability, ATP luminescence, 48 h; tumour line D
Results filed as inconclusive are left out. The source made the active and inactive calls. Calls follow the shape of the dose curve; as a rule, active = well fitted inhibition curve with a large enough effect; inconclusive = small, poorly fitted or top-dose-only effect; inactive = flat fitted curve, though single readings scatter.

Req: I'd like to know its Potency. The compound in question is "CCOC(=O)Nc1ccc2c(c1)N(C(=O)CN(C)C)c1ccccc1CC2"
Resp: 56.2 µM (active)

Req: Also check "Cc1ccc(C2(O)CCN(CCCC(=O)c3ccc(F)cc3)CC2)cc1"
Resp: 12.6 µM (active)

Req: Now consider "C=C1C(=C/C=C2\CCC[C@]3(C)[C@@H]([C@H](C)CCCC(C)(C)O)CC[C@@H]23)C[C@@H](O)C[C@@H]1O" and answer again.
Resp: 20 µM (active)

Req: Note, next up: "CN[C@H]1CC[C@@H](c2ccc(Cl)c(Cl)c2)c2ccccc21"
Resp: 6.31 µM (active)

Req: // repeat for "CCCCCCCC(=O)CC[C@@H]1[C@@H](C/C=C\CCCC(=O)OC(C)C)[C@@H](O)C[C@H]1O" and report
Resp: 15.8 µM (active)

Req: Now the same for "CCCOc1ccc2nc(NC(=O)OC)sc2c1"
Resp: 10 µM (active)
